# Measurement Context: Escherichia coli (strain K12); pH 7.5; Thermal; Intensity; HEPES 20mM; transition: 2; whole UniProt chain shown
Collected Tm values appear next to each entry.

{"columns": ["Protein", "Readout Units", "Tm"],
 "data": [
  ["GTPase ObgE/CgtA wild type, P42641 (protein) MKFVDEASILVVAGDGGNGCVSFRREKYIPKGGPDGGDGGDGGDVWMEADENLNTLIDYRFEKSFRAERGQNGASRDCTGKRGKDVTIKVPVGTRVIDQGTGETMGDMTKHGQRLLVAKGGWHGLGNTRFKSSVNRTPRQKTNGTPGDKRELLLELMLLADVGMLGMPNAGKSTFIRAVSAAKPKVADYPFTTLVPSLGVVRMDNEKSFVVADIPGLIEGAAEGAGLGIRFLKHLERCRVLLHLIDIDPIDGTDPVENARIIISELEKYSQDLATKPRWLVFNKIDLLDKVEAEEKAKAIAEALGWEDKYYLISAASGLGVKDLCWDVMTFIIENPVVQAEEAKQPEKVEFMWDDYHRQQLEEIAEEDDEDWDDDWDEDDEEGVEFIYKR", "°C", 44.5],
  ["NADPH-dependent 7-cyano-7-deazaguanine reductase wild type, Q46920 (protein) MSSYANHQALAGLTLGKSTDYRDTYDASLLQGVPRSLNRDPLGLKADNLPFHGTDIWTLYELSWLNAKGLPQVAVGHVELDYTSVNLIESKSFKLYLNSFNQTRFNNWDEVRQTLERDLSTCAQGKISVALYRLDELEGQPIGHFNGTCIDDQDITIDNYEFTTDYLENATCGEKVVEETLVSHLLKSNCLITHQPDWGSLQIQYRGRQIDREKLLRYLVSFRHHNEFHEQCVERIFNDLLRFCQPEKLSVYARYTRRGGLDINPWRSNSDFVPSTTRLVRQ", "°C", 43.9],
  ["Ribosome-recycling factor wild type, P0A805 (protein) MISDIRKDAEVRMDKCVEAFKTQISKIRTGRASPSLLDGIVVEYYGTPTPLRQLASVTVEDSRTLKINVFDRSMSPAVEKAIMASDLGLNPNSAGSDIRVPLPPLTEERRKDLTKIVRGEAEQARVAVRNVRRDANDKVKALLKDKEISEDDDRRSQDDVQKLTDAAIKKIEAALADKEAELMQF", "°C", 44.4],
  ["Acetylornithine deacetylase wild type, P23908 (protein) MKNKLPPFIEIYRALIATPSISATEEALDQSNADLITLLADWFKDLGFNVEVQPVPGTRNKFNMLASIGQGAGGLLLAGHTDTVPFDDGRWTRDPFTLTEHDGKLYGLGTADMKGFFAFILDALRDVDVTKLKKPLYILATADEETSMAGARYFAETTALRPDCAIIGEPTSLQPVRAHKGHISNAIRIQGQSGHSSDPARGVNAIELMHDAIGHILQLRDNLKERYHYEAFTVPYPTLNLGHIHGGDASNRICACCELHMDIRPLPGMTLNELNGLLNDALAPVSERWPGRLTVDELHPPIPGYECPPNHQLVEVVEKLLGAKTEVVNYCTEAPFIQTLCPTLVLGPGSINQAHQPDEYLETRFIKPTRELITQVIHHFCWH", "°C", 45.9]
]}

Hello, the source for this data is FireProtDB (doi:10.1126/science.aai7825), in case you need it.
